- measurement-target: TRPV1 expressed in rat spinal cord (Rattus norvegicus, UniProt O35433)
- Construct: the spinal cord was removed and disrupted using a Polytron tissue homogenizer; from tissue; host or cells: rat spinal cord membranes
- Sequence (O35433 whole entry): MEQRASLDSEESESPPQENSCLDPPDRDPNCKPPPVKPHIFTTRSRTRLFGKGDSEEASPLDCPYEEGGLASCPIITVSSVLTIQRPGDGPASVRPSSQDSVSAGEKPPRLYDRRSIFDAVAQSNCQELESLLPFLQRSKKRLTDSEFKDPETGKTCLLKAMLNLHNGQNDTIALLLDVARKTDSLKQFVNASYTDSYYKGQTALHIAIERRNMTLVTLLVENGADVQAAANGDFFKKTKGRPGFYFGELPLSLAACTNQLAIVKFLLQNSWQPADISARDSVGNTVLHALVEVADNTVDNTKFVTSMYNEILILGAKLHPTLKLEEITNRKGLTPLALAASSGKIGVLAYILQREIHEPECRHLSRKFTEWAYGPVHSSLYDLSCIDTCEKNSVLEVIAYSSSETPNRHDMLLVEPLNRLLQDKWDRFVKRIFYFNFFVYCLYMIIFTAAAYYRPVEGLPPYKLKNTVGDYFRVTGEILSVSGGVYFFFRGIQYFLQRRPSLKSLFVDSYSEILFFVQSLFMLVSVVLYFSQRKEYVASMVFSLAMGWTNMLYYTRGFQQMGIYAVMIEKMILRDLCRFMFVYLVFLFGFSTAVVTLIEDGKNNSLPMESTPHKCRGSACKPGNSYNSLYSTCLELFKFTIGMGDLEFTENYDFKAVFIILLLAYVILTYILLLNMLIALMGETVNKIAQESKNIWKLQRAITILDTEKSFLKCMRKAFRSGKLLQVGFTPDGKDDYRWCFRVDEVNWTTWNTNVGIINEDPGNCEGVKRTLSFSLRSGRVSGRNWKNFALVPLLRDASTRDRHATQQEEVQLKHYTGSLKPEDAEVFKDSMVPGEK
- assay-name: Radioligand binding assay ([3H]-RTX, spinal cord membranes)
- experimental-setup: competition with [3H]RTX (0.4 nM), 37°C, 60 min; read-out: Ki
measured-parameter: pKi
# pKi is unitless: minus log10 of the molar concentration; print number only

// recorded pKi for COc1cccc(NC(=O)/C=C/c2ccc(Cl)cc2)c1 [SB-366791] : 7.44

----------
- measurement-target: CYP2D6 (Homo sapiens)
- Sequence (P10635 whole entry): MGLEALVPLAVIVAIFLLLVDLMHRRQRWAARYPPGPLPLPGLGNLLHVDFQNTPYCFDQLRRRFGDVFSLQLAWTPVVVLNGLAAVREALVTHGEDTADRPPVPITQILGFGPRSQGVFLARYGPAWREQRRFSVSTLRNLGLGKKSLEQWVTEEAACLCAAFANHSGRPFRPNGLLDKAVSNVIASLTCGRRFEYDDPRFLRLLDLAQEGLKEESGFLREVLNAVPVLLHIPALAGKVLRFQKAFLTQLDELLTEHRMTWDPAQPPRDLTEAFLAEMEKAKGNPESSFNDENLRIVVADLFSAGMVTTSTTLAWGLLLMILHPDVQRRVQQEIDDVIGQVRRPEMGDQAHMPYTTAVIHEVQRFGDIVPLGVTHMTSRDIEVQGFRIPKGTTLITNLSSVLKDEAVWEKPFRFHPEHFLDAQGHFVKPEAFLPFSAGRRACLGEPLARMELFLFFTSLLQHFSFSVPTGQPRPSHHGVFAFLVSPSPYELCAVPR
- assay-name: Fluorometric cytochrome P450 inhibition assay
- Assay type: in vitro ADME
- experimental-setup: tested from 0.1 µM to 10 µM, 37°C, read-out: Cytochrome P450 subtypes µM inhibition (estimated IC50) CYP2D6
measured-parameter: IC50

Tested system CYP2D6 (Homo sapiens); IC50 recorded for O=C(Nc1ccc(Cl)cc1)c1ccc(-c2cccc3cnccc23)[n+]([O-])c1 was > 10 µM

----------
- measurement-target: CYP2C19 (Homo sapiens)
- Sequence (P33261 whole entry): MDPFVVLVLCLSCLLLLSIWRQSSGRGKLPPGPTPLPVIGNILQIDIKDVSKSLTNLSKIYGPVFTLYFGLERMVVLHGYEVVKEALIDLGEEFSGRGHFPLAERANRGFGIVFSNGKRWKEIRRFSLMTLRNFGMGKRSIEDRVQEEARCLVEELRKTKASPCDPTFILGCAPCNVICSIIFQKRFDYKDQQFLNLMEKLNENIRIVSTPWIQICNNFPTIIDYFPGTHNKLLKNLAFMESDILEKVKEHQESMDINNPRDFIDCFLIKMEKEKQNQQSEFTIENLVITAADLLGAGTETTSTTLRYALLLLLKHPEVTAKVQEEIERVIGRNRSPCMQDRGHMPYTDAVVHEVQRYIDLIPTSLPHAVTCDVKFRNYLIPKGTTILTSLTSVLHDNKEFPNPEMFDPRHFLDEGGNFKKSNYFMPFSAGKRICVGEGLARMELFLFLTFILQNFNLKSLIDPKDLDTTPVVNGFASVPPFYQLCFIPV
- assay-name: Fluorometric cytochrome P450 inhibition assay
- Assay type: in vitro ADME
- experimental-setup: tested from 0.1 µM to 10 µM, 37°C, read-out: Cytochrome P450 subtypes µM inhibition (estimated IC50) CYP2C19
measured-parameter: IC50

Record O=C(Nc1ccc(Cl)cc1)c1ccc(-c2cccc3cnccc23)[n+]([O-])c1 [Example V405] , field IC50: > 10 µM

----------
- measurement-target: TRPV1 expressed in rat spinal cord (Rattus norvegicus, UniProt O35433)
- Construct: the spinal cord was removed and disrupted using a Polytron tissue homogenizer; from tissue; host or cells: rat spinal cord membranes
- assay-name: Radioligand binding assay ([3H]-RTX, spinal cord membranes)
measured-parameter: pKi
The scale used: pKi is minus the common logarithm of the concentration in molar units.

For reference, reported pKi for O=C(Nc1ccc(Cl)cc1)c1ccc(-c2cccc3cnccc23)[n+]([O-])c1 stands at 6.69

----------
- measurement-target: TRPV1 expressing neurons (Rattus norvegicus, UniProt O35433)
- Construct: Adult rats were terminally anaesthetized and decapitated; Dorsal root ganglia were removed; endogenous in cells; host or cells: primary cultured adult rat dorsal root ganglia neurons
- assay-name: Ca2+ fluorescence measurements in cultured dorsal root ganglia neurones
- Assay type: cell-based
- experimental-setup: read-out: IC50 of inhibition of capsaicin-evoked [Ca2+]i mobilization; 0.1 µM capsaicin; mean and 95% fiducial limits
measured-parameter: IC50
For clarity, give the value followed by its unit.

Tested on TRPV1 expressing neurons (Rattus norvegicus, UniProt O35433), the item O=C(Nc1ccc(Cl)cc1)c1ccc(-c2cccc3cnccc23)[n+]([O-])c1 showed IC50 equal to 15 nM

----------
- assay-name: Thermodynamic solubility in PBS
- Format: physicochemical
- experimental-setup: phosphate buffer, pH 7.4, aqueous buffer, phosphate buffer pH 7.4, room temperature, stirring 36h, HPLC
measured-parameter: solubility thermodynamic at 36 h (µM)
Your answer is read as µM, so omit the unit and give the number.

Kindly note the recorded solubility thermodynamic at 36 h for O=C(Nc1ccc(Cl)cc1)c1ccc(-c2cccc3cnccc23)[n+]([O-])c1 , which is 106

----------
- measurement-target: TRPV1 expressing neurons (Rattus norvegicus, UniProt O35433)
- Construct: Adult rats were terminally anaesthetized and decapitated; Dorsal root ganglia were removed; endogenous in cells; host or cells: primary cultured adult rat dorsal root ganglia neurons
- assay-name: Ca2+ fluorescence measurements in cultured dorsal root ganglia neurones
- Type: cell-based
- experimental-setup: 0.1 µM capsaicin; mean and 95% fiducial limits; read-out: IC50 of inhibition of capsaicin-evoked [Ca2+]i mobilization
measured-parameter: pIC50
Scale: pIC50 equals -log10([C]), with [C] in mol/L.

>>> assay_result("COc1cccc(NC(=O)/C=C/c2ccc(Cl)cc2)c1")
8.06

// moving on: another record for pIC50
Tested system TRPV1 expressing neurons (Rattus norvegicus, UniProt O35433); pIC50 recorded for Oc1cc2c(cc1O)CN(C(=S)NCCc1ccc(Cl)cc1)CCC2 [capsazepine] was 6.02
